- Tested on: calvaria
- METHOD_SUMMARY: Inhibition of bone resorption (45Ca release from calvaria stimulated with hPTH (1-34), method of Raisz)
- Format: cell-based, new born ICR mouse
- EXPERIMENTAL_CONTEXT: 45Ca release, 50 nM hPTH (1-34), 3 days incubation; test concentrations 0.04, 0.2 and 1 μM; mean of 4 pairs; read-out: IC50 (inhibition of bone resorption)
IC50 values by entry

Cc1nnc2n1-c1ccccc1C(c1ccc(Cl)cc1)=NN2Cc1cccnc1 : 0.54 µM

Let us move to another entry and its IC50.
Returns the measured IC50 for the input compound. Input: COc1ccc(CN2N=C(c3ccc(Cl)cc3)c3ccccc3-n3c(C)nnc32)cc1
0.12 µM
